test system: MDA-MB-468 breast; experiment: NCI-60 one-dose screen, 48 h (100 = growth as untreated, 0 = no growth, -100 = all killed); details: 10 µM unless noted
This is part of a sample that, as a whole, favours compounds with a hit. Of some 83,000 tested, about 20% had one in any assay. The source made the active and inactive calls. How the source made its calls: active means growth percent below 10; inactive means the rest.
MEASUREMENT LABEL: growth

COc1ccc(-c2nc3ccc(C(=O)NN4C(=O)c5ccc([N+](=O)[O-])cc5C4=O)cc3[nH]2)cc1 ... 89.7% (inactive)
COc1c(F)ccc(C(=O)Nc2ccc3nc(NC(=O)C4CCCN(S(=O)(=O)c5ccc(C#N)cc5)C4)sc3c2)c1F (centres undefined) ... 86.2% (inactive)
CC(=O)OCC1OC(OC2C(COC(C)=O)OC(n3cc(COc4ccc5ccc(=O)oc5c4)nn3)C(OC(C)=O)C2OC(C)=O)C(OC(C)=O)C(OC(C)=O)C1OC(C)=O (centres undefined) ... 108% (inactive)
O=C(/C=C/c1cccc(OCc2ccc(F)cc2)c1)c1nc2ccccc2[nH]1 ... 8.37% (active)
COc1ccc(-c2nc(SC(C)C)nc(NCCc3c[nH]c4ccccc34)c2C#N)cc1 ... 30.1% (inactive)
COc1ccc(-c2nnc3ccc(N/N=C/c4ccc(O)cc4)nn23)cc1 ... 48.2% (inactive)

// growth lookup, key: COc1ccc2c(c1)c(-c1cc3nc(-c4cn(C)c5ncc(Br)cc45)cc(N)n3n1)cn2C -81.4% (active)

====

system: SR leukemia; test: NCI-60 one-dose screen, 48 h (100 = growth as untreated, 0 = no growth, -100 = all killed); conditions: 10 µM unless noted
The panel holds about 83,000 compounds, 20% with a hit somewhere; the sample as a whole holds those more often.
MEASUREMENT LABEL: growth (%)
Unit % implied. Number only.

Reference set (3 entries):
Cc1ccc(S(=O)(=O)c2nc(S(=O)(=O)c3ccc(C)cc3)c(N3CCC(O)CC3)s2)cc1 ... 15.7
COc1ccc(-c2ccnc(SCc3cc4ccccc4[nH]c3=O)n2)cc1 ... 14.9
CN(C)CCOc1ccc(C(=O)C2[C@H](c3ccc(Cl)cc3)[C@@H](c3ccccc3)NC23C(=O)Nc2ccccc23)cc1 (stereo partly specified) ... -18

If you can, please state the reported growth value of Cc1cc(=O)oc2cc(OCCOc3ccc(/C=C/C(=O)Nc4ccccc4N)cc3)ccc12 . 26.1

Please report the recorded growth for Cc1cccc(Nc2nc3ccccc3nc2/C=C/c2ccc(F)cc2)c1 . 87.2

Entry N#Cc1c(-c2ccc(Cl)cc2)nc2n[nH]c(-c3ccc(Cl)cc3)c2c1-c1cccs1 has what growth? 25.6

Field request: growth | item: CC(=O)Oc1ccccc1C(=O)[Se]C(=NC1CCCCC1)NC1CCCCC1 -15.7

// growth lookup, key: CCCCn1c(O)c(N=Nc2nc(-c3cc4ccccc4oc3=O)cs2)c2cc(Br)ccc21 103

Entry NS(=O)(=O)c1ccc(N=Nc2c(O)n(CC(=O)Nc3ccccc3)c3ccccc23)cc1 : reported growth = ? 18.5

What measured growth goes with Cn1cc(-c2cc(N)n3nc(-c4cn(C)c5ccc(Cl)cc45)cc3n2)c2ccccc21 ? 99.7

What does the record list as growth for O=C(N=Nc1c(O)[nH]c2ccc([N+](=O)[O-])cc12)c1ccc2nc(-c3ccccc3)[nH]c2c1 ? 30.9

Entry CCN(CC)C(=O)N/C(N)=N/c1nc2ccccc2s1 has what growth? 32

So what's the measured growth for this one? COc1cc(/C=C/C(=O)c2ccccc2)ccc1Oc1nc(Nc2ccc(F)cc2)nc(N(C)C)n1 1.38

# get_value(readout='growth', item= Cn1cc(-c2cc3nc(-c4cn(C)c5ncccc45)cc(N)n3n2)c2ccccc21 ) -28.8

growth lookup needed for CCCSc1nc(Nc2ccc(S(N)(=O)=O)cc2)c(C#N)c(-c2cc(OC)c(OC)c(OC)c2)n1 , thanks. 6.66

====

test system: CAKI-1 renal; test: NCI-60 one-dose screen, 48 h (100 = growth as untreated, 0 = no growth, -100 = all killed); settings: 10 µM unless noted
About 83,000 compounds went through this panel and 20% of them were active in at least one assay; those are over-represented in the sample as a whole. Active and inactive are the calls of the source. The calls were made as follows: active = growth percent below 10; inactive = the rest.
MEASUREMENT LABEL: growth

Solved cases (5 shown):
COc1ccc2[nH]c(=O)c(CSc3nccc(-c4ccc(OC)c(OC)c4)n3)cc2c1 ... -10.2% (active)
N#Cc1c(-c2ccccc2Cl)cc(-c2c[nH]c3ccccc23)[nH]c1=O ... 55.5% (inactive)
COc1ccc(-c2nnc3ccc(N/N=C/c4ccc(O)cc4)nn23)cc1 ... 21.5% (inactive)
Cc1ccc([C@H]2C(C(=O)c3ccc(Cl)cc3)C3(N[C@@H]2c2ccccc2)C(=O)Nc2ccccc23)cc1 (some centres undefined) ... 32% (inactive)
COc1ccc2c(c1)c(-c1cc(N)n3nc(-c4cn(C)c5ccccc45)cc3n1)cn2C ... -77.4% (active)

Could you share what growth was measured for CN(C)c1nc(NCCNS(=O)(=O)c2ccc(C3=Nc4c(N)nc(N)nc4NC(c4ccc(Cl)cc4)C3)cc2)nc(Nc2ccc(F)cc2)n1 (centres undefined) , tested on CAKI-1 renal? 72.4% (inactive)

Find growth (CAKI-1 renal) for the entry O=C(COc1ccc(NC(=O)Nc2ccc(Cl)c(Cl)c2)cc1)N=Nc1c(O)[nH]c2ccc([N+](=O)[O-])cc12 72% (inactive)

Value wanted: growth (CAKI-1 renal) of entry CC(C)CSc1nc(NCCc2c[nH]c3ccccc23)c(C#N)c(-c2ccc(F)cc2)n1 49.2% (inactive)

Request body: readout growth, system CAKI-1 renal, query CN(C)CCn1c2ccccc2c2nc3cc4ccccc4cc3nc21 . Return the value. 4.76% (active)

====

system: CAKI-1 renal; assay: NCI-60 one-dose screen, 48 h (100 = growth as untreated, 0 = no growth, -100 = all killed); conditions: 10 µM unless noted
The panel holds about 83,000 compounds, 20% with a hit somewhere; the sample as a whole holds those more often.
# note: exactly 50% is not below, so it is no; use yes for growth strictly under it

COc1cc2oc(-c3cccc(C(=O)Nc4ccc(Cl)cc4)c3)cc(=O)c2c(OCCNC(=O)[C@@H](N)CCC(=O)O)c1OC ... no
CCOc1ccc(-c2c(C#N)c(-c3ccc(Cl)cc3)nc3n[nH]c(-c4ccc(Cl)cc4)c23)cc1OC ... no
CCCSc1nc(NCCc2c[nH]c3ccccc23)c(C#N)c(-c2ccc(F)cc2)n1 ... no
CNC(=O)c1cc(Oc2ccc3nc(NC(=O)Nc4cccc(OC(F)(F)F)c4)sc3c2)ccn1 ... yes

Pending molecule:
For Cc1cc(C)cc(C(=O)Nc2cccc(-c3cn(-c4ccc(S(N)(=O)=O)cc4)nn3)c2)c1 , is the recorded growth below the cut-off of 50%? no

====

test system: M14 melanoma; assay: NCI-60 one-dose screen, 48 h (100 = growth as untreated, 0 = no growth, -100 = all killed); conditions: 10 µM unless noted
The panel holds about 83,000 compounds, 20% with a hit somewhere; the sample as a whole holds those more often.
Checkbox rule: growth lower than 60% = label 1; growth not lower than 60% = label 0.

O=C(Cn1nc(-c2ccccc2)ccc1=O)N/N=C/c1ccc(N2CCOCC2)cc1 ... label 0
CC(C)CSc1nc(NCCc2c[nH]c3ccccc23)c(C#N)c(-c2ccc(F)cc2)n1 ... label 0

Does CN(C)c1nc(NCCNS(=O)(=O)c2ccc(C3=Nc4c(N)nc(N)nc4NC(c4ccc(Cl)cc4)C3)cc2)nc(Nc2ccc(F)cc2)n1 (stereo not drawn) have growth strictly under 60%? label 1

Given the entry CNC(=O)c1cc(Oc2ccc3nc(NC(=O)Nc4cccc(OC(F)(F)F)c4)sc3c2)ccn1 , would its reported growth be below 60%? label 1

is_below(growth, 60%) for CC1(C)CC[C@]2(C(=O)O)CC[C@]3(C)C(=CCC4[C@@]5(C)C[C@@H](O)[C@@H]6OC(c7ccccc7F)OC[C@@]6(C)C5CC[C@]43C)C2C1 (stereo partly drawn) ? label 1

Confirm or reject: growth of COC(=O)/C=C/c1cccc2c1C(=O)NC(C)(c1cc3cc4ccccc4cc3oc1=O)N2 (stereo not drawn) lies strictly below 60% label 1

Strictly below 60% in growth? CC1CN(c2oc(-c3ccc([N+](=O)[O-])cc3)nc2C#N)CC(C)O1 (stereo not drawn) label 0

Given the entry COc1ccc(C(=O)/C=C/c2ccc3ccccc3c2)cc1S(N)(=O)=O , would its reported growth be below 60%? label 1

====

system: SK-MEL-28 melanoma; test: NCI-60 one-dose screen, 48 h; conditions: 10 µM unless noted
About 83,000 compounds went through this panel and 20% of them were active in at least one assay; those are over-represented in the sample as a whole. Activity calls are given as the source filed them. Rule for the calls: active = growth percent below 10; inactive = the rest.
Result category, one only: 1.0 (active), 0.0 (inactive)

Cc1ccc([C@H]2C(C(=O)c3ccc(Cl)cc3)C3(N[C@@H]2c2ccccc2)C(=O)Nc2ccc(Cl)cc23)cc1 (stereo partly drawn) ... 0.0
Cc1ccc(C2=NN(c3nc(-c4cc5ccccc5oc4=O)cs3)C(c3ccc(C)cc3)C2)cc1 (stereo not drawn) ... 0.0
Cn1cc(-c2cc(N)n3nc(-c4cn(C)c5ccccc45)cc3n2)c2cc(Cl)ccc21 ... 1.0
C=C1CC[C@@H]2[C@]3(C)COC(c4ccccc4)O[C@@H]3CC[C@@]2(C)[C@@H]1C/C=C1/C(=O)OCC1OC(C)=O (stereo partly drawn) ... 1.0
COc1cc2oc(-c3cccc(C(=O)Nc4ccc(Cl)cc4)c3)cc(=O)c2c(OCCNC(=O)[C@@H](N)CCC(=O)O)c1OC ... 0.0

Short answer needed: outcome of this test for COc1cc2oc(-c3cccc(C(=O)Nc4ccc(Cl)cc4)c3)cc(=O)c2c(OCCNC(=O)[C@H](CCC(=O)OC(C)(C)C)NC(=O)OC(C)(C)C)c1OC ? 0.0

// outcome(item) with item = CC12CC[C@@H]3[C@]4(C)COC(c5c(F)cccc5F)O[C@@H]4CC[C@@]3(C)[C@@H]1CC(C1=CCOC1=O)O2 (stereo partly drawn) 0.0

Which outcome did this test record for the molecule CCN(CC)c1ccc(/C=N/Nc2nc(-c3ccc(C)cc3)cs2)c(O)c1 ? 0.0
